protocol.summary: Nrf2 qHTS screen for inhibitors; note: nearly all actives have a fitted effect of over 60% in size
assay.context: A549 ARE-Fluc reporter, luciferase luminescence, 18-24 h; series mostly up to 46 µM
The campaign covered roughly 360,000 compounds. About 7,500 (2.1%) were called active. Not shown: some 20% with an inconclusive outcome. Calls come from the whole dose curve; as a rule, active = well fitted inhibition curve with a large enough effect; inconclusive = small, poorly fitted or top-dose-only effect, or effect the other way; inactive = flat fitted curve, though single readings scatter. For the sample, actives were picked, then their nearest neighbours and some compounds at random.
Classes used: 1 (yes) (active), 0 (no) (inactive)

[
  {
    "compound": "CCOC(=O)c1ccc(CSc2nnc3cc(C)c4ccccc4n23)cc1",
    "answer.label": "0 (no)"
  },
  {
    "compound": "O=C(CN1C(=O)NC2(CCCCCC2)C1=O)Nc1ccc([N+](=O)[O-])cc1",
    "answer.label": "0 (no)"
  },
  {
    "compound": "CCN(CC)CCCC(C)n1c2nc(=O)[nH]c(=O)c-2nc2cc(Cl)ccc21 (stereo unspecified)",
    "answer.label": "1 (yes)"
  },
  {
    "compound": "COc1ccc(-c2cc(-c3nc(-c4cc(OC)c(OC)c(OC)c4)no3)[nH]n2)c(OC)c1",
    "answer.label": "0 (no)"
  },
  {
    "compound": "O=C(OCCOc1ccccc1Cl)c1cc(S(=O)(=O)N2CCCCC2)ccc1N1CCOCC1",
    "answer.label": "1 (yes)"
  },
  {
    "compound": "COc1ccc2[nH]c(C(=O)N3CCN(C)CC3)c(C)c2c1",
    "answer.label": "0 (no)"
  },
  {
    "compound": "CCOCCCNC(=O)c1cn(CC)c2ccc(S(=O)(=O)N3CCc4ccccc4C3)cc2c1=O",
    "answer.label": "0 (no)"
  },
  {
    "compound": "COc1ccc2[nH]c(=S)cc(C)c2c1",
    "answer.label": "0 (no)"
  },
  {
    "compound": "COc1ccc(CNC(=O)COc2ccccc2C(=O)c2cnn(-c3ccccc3)c2)cc1OC",
    "answer.label": "0 (no)"
  },
  {
    "compound": "COC(=O)[C@]1(Cc2ccccc2)N[C@H](CN(C)S(=O)(=O)c2ccc(OC(F)(F)F)cc2)[C@@H]2C(=O)N(Cc3ccccc3)C(=O)[C@@H]21",
    "answer.label": "0 (no)"
  },
  {
    "compound": "Cc1ccc(CNc2ncnc3cc(-c4ccc5c(c4)OCO5)ccc23)o1",
    "answer.label": "0 (no)"
  },
  {
    "compound": "Cc1ccc(SCC(=O)N2CCN(c3ccc(F)cc3)CC2)cc1",
    "answer.label": "0 (no)"
  },
  {
    "compound": "C=CCn1c(SCc2cccc(F)c2)nc2cc(C(=O)N3CCC(C(N)=O)CC3)ccc2c1=O",
    "answer.label": "0 (no)"
  },
  {
    "compound": "CCCCNC(=O)Cn1c(SCc2cccc(Cl)c2)nc2ccncc21",
    "answer.label": "0 (no)"
  },
  {
    "compound": "CC1(C)Cc2c(cnn2-c2cccc(F)c2)C(NC(=O)c2cc[n+]([O-])cc2)C1 (stereo unspecified)",
    "answer.label": "0 (no)"
  },
  {
    "compound": "O=[N+]([O-])c1ccc(N=NNc2ccc([N+](=O)[O-])cc2)cc1",
    "answer.label": "0 (no)"
  },
  {
    "compound": "COc1ccc(C(=O)NC2CC(C)(C)Cc3c2cnn3-c2ccccc2)c(OC)c1 (stereo unspecified)",
    "answer.label": "1 (yes)"
  },
  {
    "compound": "COc1cccc(Cn2c(SCc3ccc(C(=O)N4CCCCC4)cc3)nc3ccncc32)c1",
    "answer.label": "1 (yes)"
  },
  {
    "compound": "CSc1ncc(Sc2ccccc2)c(C(=O)O)n1",
    "answer.label": "0 (no)"
  },
  {
    "compound": "COc1cc(C(=O)CCc2ccc3c(c2)OCO3)cc(OC)c1OC",
    "answer.label": "0 (no)"
  },
  {
    "compound": "CC(C)N(C(=O)[C@H]1C[C@H](CC(=O)NCCC2=CCCCC2)C(=O)N2CCc3c([nH]c4cc(CCC(=O)N(C)C)ccc34)[C@]12C)C(C)C",
    "answer.label": "0 (no)"
  },
  {
    "compound": "Cc1cccc(-n2ncc3c(=O)[nH]c(SCC(=O)Nc4cc(C)on4)nc32)c1",
    "answer.label": "0 (no)"
  },
  {
    "compound": "CCc1cccc2c3c([nH]c12)C(CC)(CC(=O)O)OCC3 (stereo unspecified)",
    "answer.label": "1 (yes)"
  },
  {
    "compound": "O=C(Nc1cccc(NC(=O)c2ccc(Br)cc2)c1)c1ccccc1",
    "answer.label": "0 (no)"
  },
  {
    "compound": "NS(=O)(=O)c1ccc(NC(=O)CSc2nnc3c(n2)[nH]c2ccccc23)cc1",
    "answer.label": "0 (no)"
  },
  {
    "compound": "COc1ccc2sc(-c3ccc(N(C)C)cc3)c(-c3ccc4cc[nH]c4c3)c2c1",
    "answer.label": "0 (no)"
  },
  {
    "compound": "COc1ccc2c(c1)c(=Cc1ccc(N(C)C)cc1)c1cc(-c3ccccc3)[n+](C)n12",
    "answer.label": "1 (yes)"
  },
  {
    "compound": "Cc1cccc(CSc2nc3ccncc3n2CC(=O)N(C)C2CCCCC2)c1",
    "answer.label": "0 (no)"
  },
  {
    "compound": "Cc1cc(C(=O)NC2CC(C)(C)Cc3c2cnn3-c2ccccc2)n[nH]1 (stereo unspecified)",
    "answer.label": "0 (no)"
  },
  {
    "compound": "O=C(Cc1ccccc1)Nc1cccc(NC(=O)c2ccccc2)c1",
    "answer.label": "1 (yes)"
  },
  {
    "compound": "CN(C)C(CNC(=O)c1cc2ccccc2o1)c1ccccc1 (stereo unspecified)",
    "answer.label": "0 (no)"
  },
  {
    "compound": "CC(=O)O[C@]1(C(C)=O)CC[C@H]2[C@@H]3C=C(C)C4=CC(=O)CC[C@]4(C)[C@H]3CC[C@@]21C",
    "answer.label": "1 (yes)"
  },
  {
    "compound": "CCN1CCC(N(Cc2ccc(F)cc2)C(=O)Nc2cc(C)ccc2C)CC1",
    "answer.label": "0 (no)"
  },
  {
    "compound": "NC(=S)NN=C1CCCC(C(F)(F)F)C1 (stereo unspecified)",
    "answer.label": "0 (no)"
  },
  {
    "compound": "C[C@]12CCC(=O)C=C1C=CC1C2CC[C@@]2(C)C1CC[C@@]21CCC(=O)O1 (stereo partly specified)",
    "answer.label": "0 (no)"
  },
  {
    "compound": "COc1cccc(CNCCSc2nnnn2C)c1OCc1ccccc1Cl",
    "answer.label": "0 (no)"
  },
  {
    "compound": "CSc1nc(-c2ccccc2)nc(C(Cl)Cl)n1",
    "answer.label": "1 (yes)"
  },
  {
    "compound": "Cc1ccc(C(CC(=O)O)NC(=O)c2ccc(S(=O)(=O)N3CCCC3)cc2)cc1 (stereo unspecified)",
    "answer.label": "0 (no)"
  },
  {
    "compound": "COc1ccc2sc(-c3ccc(N(C)C)cc3)c(C#CCO)c2c1",
    "answer.label": "0 (no)"
  },
  {
    "compound": "O=C1C(F)N([S+](=O)([O-])c2ccc3c(c2)OCCO3)CCN1[S+](=O)([O-])c1c(F)cccc1F (stereo unspecified)",
    "answer.label": "0 (no)"
  },
  {
    "compound": "Cc1cc(=O)[nH]c(SCc2cccc(F)c2)n1",
    "answer.label": "0 (no)"
  }
]

====

protocol.summary: Nrf2 qHTS screen for inhibitors; note: nearly all actives have a fitted effect of over 60% in size
assay.context: A549 ARE-Fluc reporter, luciferase luminescence, 18-24 h; series mostly up to 46 µM
Among all 360,000 compounds or so, about 7,500 (2.1%) were called active. Inconclusive results (about 20%) are left out. Calls follow the shape of the dose curve; as a rule, active = well fitted inhibition curve with a large enough effect; inconclusive = small, poorly fitted or top-dose-only effect, or effect the other way; inactive = flat fitted curve, though single readings scatter. The list comes from a sample in which actives are over-represented; it also holds close analogues and randomly drawn compounds.
Classes used: active, inactive

[
  {
    "compound": "O=C(c1ccc(Cl)c(S(=O)(=O)N2CCCCCC2)c1)N1CCN(c2ccc(O)cc2)CC1",
    "answer.label": "active"
  },
  {
    "compound": "COc1cccc(C=CC(=O)C=CC=Cc2ccccc2)c1",
    "answer.label": "inactive"
  },
  {
    "compound": "CCOC(=O)c1c(C)oc2nc(C)nc(N(CC(C)C)CC(C)C)c12",
    "answer.label": "inactive"
  },
  {
    "compound": "CCOC(=O)[C@H]1[C@H]2COc3ccc(Br)cc3[C@@H]2N2C(=O)CN(C)C(=O)[C@@]12C",
    "answer.label": "inactive"
  },
  {
    "compound": "COc1ccc(C/C(C)=N/NC(=O)c2ccncc2)cc1",
    "answer.label": "inactive"
  },
  {
    "compound": "COc1ccc(-n2c(=O)c3sc4ccccc4c3n(CC(=O)Nc3cccc(C)c3)c2=O)cc1",
    "answer.label": "inactive"
  },
  {
    "compound": "COc1ccc(N2CCN(C(=O)CSCc3nc(-c4ccccc4Cl)oc3C)CC2)cc1",
    "answer.label": "active"
  },
  {
    "compound": "Cc1ccc(Cl)cc1NC(=O)c1ccccn1",
    "answer.label": "inactive"
  },
  {
    "compound": "CCOc1ccc(NC(=O)CN(C)C(=O)c2cccc(S(=O)(=O)N3CCCC3)c2)cc1OCC",
    "answer.label": "inactive"
  },
  {
    "compound": "CC(=NNC(=S)N1CCCCCC1)c1ccccn1",
    "answer.label": "active"
  },
  {
    "compound": "COC(=O)c1c(NC(=O)C2CC(C)=C(C)CC2C(=O)O)sc2c1CCCCC2 (stereo unspecified)",
    "answer.label": "inactive"
  }
]
